Target: human SPR (Homo sapiens (Human))
Assay: Evaluation Example 2: Measurement of human SPR inhibitory activity (seven concentrations, sepiapterin absorbance at 420 nm)
Assay type: biochemical
Conditions: Evaluation Example 2, seven concentrations 0.14 nM to 100 nM, 240 minutes at room temperature, read-out: IC50
Can you tell me IC50 for the items I'm about to list?
Answer with the value and then the unit.

// input: 7 molecules below; output: IC50 for each
1. CC(C)(C)Cn1c(=O)c(C(=O)NC2CC2)c(O)n2nc(-c3cccnc3C#N)cc12 [Synthesis Example 293]
2. Cc1nn2c(O)c(C(=O)NC3CC3)c(=O)n(CC(C)C)c2c1/C=C/C(=O)N1CC2CCC(C1)C2(F)F [Synthesis Example 651]
3. COC[C@@H]1COCCN1C(=O)/C=C/c1cnn2c(O)c(C(=O)NC3CC3)c(=O)n(CC3(C)CC3)c12 [Synthesis Example 372]
4. CC[C@H]1COCCN1C(=O)/C=C/c1c(C)nn2c(O)c(C(=O)NC3CC3)c(=O)n(CC(C)C)c12 [Synthesis Example 659]
5. CC(C)(C)Cn1c(=O)c(C(=O)NCC(F)(F)F)c(O)n2nc(Nc3cnccn3)cc12 [Synthesis Example 347]
6. Cc1nn2c(O)c(C(=O)NC3CC3)c(=O)n(CC(C)C)c2c1/C=C/C(=O)N1CCCC12CCN(CC(F)(F)F)CC2 [Synthesis Example 666]
7. CC1(Cn2c(=O)c(C(=O)NC3CC3)c(O)n3ncc(/C=C/C(=O)N4CCOCC4)c23)CCOCC1 [Synthesis Example 386]

2.24 nM
1.19 nM
0.55 nM
0.83 nM
1.87 nM
2.14 nM
0.6 nM

// input: 2 molecules below; output: IC50 for each
1. Cc1cncc(Nc2cc3n(CC(C)(C)C)c(=O)c(C(=O)NC4CC4)c(O)n3n2)n1 [Synthesis Example 330]
2. CCN(C)C(=O)/C=C/c1cnn2c(O)c(C(=O)NC3CC3)c(=O)n(CC(C)C)c12 [compound 522]

1.83 nM
0.78 nM

---

Target: human SPR (Homo sapiens (Human), UniProt P35270)
Sequence (P35270 whole entry): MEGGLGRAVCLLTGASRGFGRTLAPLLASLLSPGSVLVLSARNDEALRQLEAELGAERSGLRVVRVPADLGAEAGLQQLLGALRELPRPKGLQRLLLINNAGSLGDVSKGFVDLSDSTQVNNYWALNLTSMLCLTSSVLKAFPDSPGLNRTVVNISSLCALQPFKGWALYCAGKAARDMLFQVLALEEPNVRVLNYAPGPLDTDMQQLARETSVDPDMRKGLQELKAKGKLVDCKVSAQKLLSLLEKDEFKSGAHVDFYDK
Test: Evaluation Example 2: Measurement of human SPR inhibitory activity (seven concentrations, sepiapterin absorbance at 420 nm)
Assay type: biochemical
Details: Evaluation Example 2, seven concentrations 0.14 nM to 100 nM, 240 minutes at room temperature, read-out: IC50
QUANTITY_NAME: pIC50
Numbers only, as −log10 of the molar value.

COMPOUND: CC(C)Cn1c(=O)c(C(=O)NC2CC2)c(O)n2ncc(/C=C/c3cccnc3)c12 [Synthesis Example 247]
TARGET_ENTITY: human SPR (Homo sapiens (Human), UniProt P35270)
QUANTITY_NAME: pIC50
OBS_VALUE: 9.03

// input: 8 compounds below; output: pIC50 for each
1. Cc1nn2c(O)c(C(=O)NC3CC3)c(=O)n(CC(C)C)c2c1/C=C/C(=O)N(C)CC#N [Synthesis Example 681]
2. Cc1nn2c(O)c(C(=O)NC3CC3)c(=O)n(CC(C)C)c2c1/C=C/C(=O)N1[C@H](C)CC[C@H]1C [Synthesis Example 616]
3. CCN(CC)C(=O)/C=C/c1cnn2c(O)c(C(=O)NC3CC3)c(=O)n(CC(C)C)c12 [compound 504]
4. CC(C)Cn1c(=O)c(C(=O)NC2CC2)c(O)n2ncc(/C=C/C(=O)N3CCC(C(F)(F)F)CC3)c12 [compound 480]
5. CC(C)Cn1c(=O)c(C(=O)NC2CC2)c(O)n2ncc(C(=O)NCc3cccnc3)c12 [Synthesis Example 216]
6. CC(C)Cn1c(=O)c(C(=O)NC2CC2)c(O)n2ncc(/C=C/C(=O)N3CCN(C4CCC4)CC3)c12 [compound 472]
7. CNc1nn2c(O)c(C(=O)NC3CC3)c(=O)n(CC(C)C)c2c1/C=C/C(=O)N1CCOC[C@@H]1C [Synthesis Example 430]
8. CC(C)Cn1c(=O)c(C(=O)NC2CC2)c(O)n2nc(NC(=O)OC(C)(C)C)c(/C=C/C(=O)N3CCOCC3)c12 [Synthesis Example 415]

1: 9.19; 2: 8.95; 3: 9.08; 4: 8.95; 5: 9.11; 6: 8.95; 7: 9.04; 8: 9.13

// input: 2 compounds below; output: pIC50 for each
1. Cc1nn2c(O)c(C(=O)NC3CC3)c(=O)n(CC(C)(C)C)c2c1/C=C/C1CCOCC1 [compound 584]
2. Cc1nn2c(O)c(C(=O)NC3CC3)c(=O)n(CC(C)C)c2c1/C=C/C(=O)N1CCN(C)CC1 [compound 574]

8.92
9.10

// input: 8 compounds below; output: pIC50 for each
1. CC(C)Cn1c(=O)c(C(=O)NC2CC2)c(O)n2ncc(/C=C/C(=O)N3CCC(OC4CCOCC4)CC3)c12 [compound 478]
2. CC(C)Cn1c(=O)c(C(=O)NC2CC2)c(O)n2ncc(/C=C/C(=O)N3CCC[C@@H]3C)c12 [compound 458]
3. CC(C)Cn1c(=O)c(C(=O)NC2CC2)c(O)n2nc(N)c(/C=C/C(=O)N3[C@@H](C)COC[C@@H]3C)c12 [Synthesis Example 422]
4. CC(C)(C)Cn1c(=O)c(C(=O)NC2CC2)c(O)n2nc(Nc3cnc(C#N)cn3)cc12 [Synthesis Example 323]
5. CC(C)Cn1c(=O)c(C(=O)NC2CC2)c(O)n2ncc(C(=O)NCc3ccccn3)c12 [Synthesis Example 215]
6. COC1CN(C(=O)/C=C/c2cnn3c(O)c(C(=O)NC4CC4)c(=O)n(CC(C)C)c23)C1 [compound 558]
7. CC(C)(C)Cn1c(=O)c(C(=O)NC2CC2)c(O)n2nc(-c3cnc(F)cn3)cc12 [Synthesis Example 304]
8. CCOC(=O)/C=C/c1c(NC(=O)OC(C)(C)C)nn2c(O)c(C(=O)NC3CC3)c(=O)n(CC(C)C)c12 [Synthesis Example 412]

1. 9.02
2. 9.10
3. 9.12
4. 8.92
5. 8.98
6. 8.94
7. 8.52
8. 8.73

Per the records, this compound ( CNc1nn2c(O)c(C(=O)NC3CC3)c(=O)n(CC(C)C)c2c1/C=C/C(=O)N1CC[C@H](F)C1 [Synthesis Example 429] ) has pIC50 equal to 9.10

---

Target: human SPR (Homo sapiens (Human))
Experiment: Evaluation Example 2: Measurement of human SPR inhibitory activity (seven concentrations, sepiapterin absorbance at 420 nm)
Format: biochemical
Details: sepiapterin absorbance, Table 41, read-out: concentration at 50% inhibition of human SPR (IC50)
Classes (IC50): Low: < 0.8 nM; Mid: ≥ 0.8 nM and < 1 nM; High: ≥ 1 nM

Consider the worked cases shown below.
MOLECULE: Cc1nn2c(O)c(C(=O)NC3CC3)c(=O)n(CC(C)C)c2c1/C=C/C(=O)N1CCc2ccncc21 [Synthesis Example 699]
CLASS_LABEL: High
--
MOLECULE: CC(C)Cn1c(=O)c(C(=O)NC2CC2)c(O)n2ncc(/C=C/C(=O)N3C4CCC3CC(F)(F)C4)c12 [Synthesis Example 719]
CLASS_LABEL: Low
--
MOLECULE: CC(C)Cn1c(=O)c(C(=O)NC2CC2)c(O)n2ncc(/C=C/C(=O)N3CCOc4ncccc43)c12 [Synthesis Example 729]
CLASS_LABEL: High

Please let me know in which category the item COC[C@@H]1COCCN1C(=O)/C=C/c1c(C)nn2c(O)c(C(=O)NC3CC3)c(=O)n(CC(C)C)c12 [Synthesis Example 682] belongs. Mid

Please let me know in which category the item Cc1nn2c(O)c(C(=O)NC3CC3)c(=O)n(CC(C)C)c2c1/C=C/C(=O)N1CCc2cnccc21 [Synthesis Example 705] belongs. High

Please let me know in which category the item CC(C)Cn1c(=O)c(C(=O)NC2CC2)c(O)n2ncc(/C=C/C(=O)N3CCOc4cnccc43)c12 [Synthesis Example 728] belongs. High

---

Molecular target: human SPR (Homo sapiens (Human), UniProt P35270)
Assay: Evaluation Example 2: Measurement of human SPR inhibitory activity (seven concentrations, sepiapterin absorbance at 420 nm)
Type: biochemical
Conditions: Evaluation Example 2, seven concentrations 0.14 nM to 100 nM, 240 minutes at room temperature, read-out: IC50
Classes (IC50): low = under 0.9 nM, moderate = from 0.9 nM up to 1 nM, high = 1 nM and over

Consider the worked cases shown below.
COMPOUND: C/C(=C\c1cnn2c(O)c(C(=O)NC3CC3)c(=O)n(CC(C)C)c12)C(=O)N1CCC(F)(F)CC1 [Synthesis Example 253]
CLASS_LABEL: low

COMPOUND: COC[C@@H]1CCN(C(=O)/C=C/c2c(C)nn3c(O)c(C(=O)NC4CC4)c(=O)n(CC(C)C)c23)C1 [Synthesis Example 621]
CLASS_LABEL: high

COMPOUND: Cc1nn2c(O)c(C(=O)NC3CC3)c(=O)n(CC(C)C)c2c1/C=C/C(=O)N1CCc2cc(F)ccc21 [Synthesis Example 668]
CLASS_LABEL: high

Please let me know in which category the item CC(C)Cn1c(=O)c(C(=O)NC2CC2)c(O)n2ncc(/C=C/C(=O)N3CCOC(C)(C)C3)c12 [compound 489] belongs. moderate

Please let me know in which category the item CC(C)(F)Cn1c(=O)c(C(=O)NC2CC2)c(O)n2ncc(/C=C/C(=O)N3CCOCC3)c12 [Synthesis Example 390] belongs. low

Please let me know in which category the item Cc1nn2c(O)c(C(=O)NC3CC3)c(=O)n(CC(C)C)c2c1/C=C/C(=O)N1CCC(F)(F)CC1 [compound 579] belongs. low

Please let me know in which category the item CC(C)Cn1c(=O)c(C(=O)NC2CC2)c(O)n2ncc(/C=C/C(=O)N3CC[C@H](C(C)(C)O)C3)c12 [compound 598] belongs. high

Please let me know in which category the item CC[C@H]1COCCN1C(=O)/C=C/c1cnn2c(O)c(C(=O)NC3CC3)c(=O)n(CC(C)C)c12 [compound 544] belongs. moderate
